- Tested on: Vero E6 infected with SARS-CoV-2
- protocol_summary: inhibition of SARS-CoV-2 cytopathic effect; higher = more antiviral protection, active = above 15
- settings: 8.33 nM; 48 h
reported_property: inhibition of SARS-CoV-2 cytopathic effect (%)

{"columns": ["compound", "value"],
 "data": [
  ["N=C(N)NCCC[C@@H](N)C(=O)N[C@@H](CCCNC(=N)N)C(=O)N1CCC[C@H]1C(=O)N1C[C@H](O)C[C@H]1C(=O)NCC(=O)N[C@@H](Cc1cccs1)C(=O)N[C@@H](CO)C(=O)N1Cc2ccccc2C[C@@H]1C(=O)N1[C@H](C(=O)N[C@@H](CCCNC(=N)N)C(=O)O)C[C@@H]2CCCC[C@@H]21 [icatibant-acetate]", -4.61],
  ["Nc1ncc2c(n1)CC(c1ccco1)CC2=O (stereo not given)", 3.51],
  ["Nc1ccc(C(=O)NCC(=O)O)cc1", -0.24],
  ["Nc1ncnc2c1c(COc1cccc(Cl)c1)nn2C1CCOCC1", -0.68],
  ["CC#CCOC(=O)c1c(C)nc2sc3c(c2c1N)CCC(O)C3 (stereo not given)", 0.47],
  ["COc1ccc(C2=N[C@@H](c3ccc(Cl)cc3)[C@@H](c3ccc(Cl)cc3)N2C(=O)N2CCNC(=O)C2)c(OC(C)C)c1", 1.61],
  ["Nc1nc(N)c2nc(-c3cccc(O)c3)cnc2n1", -0.26],
  ["COc1ccc(C(=O)N2CCCc3cc(C4=NNC(=O)SC4C)ccc32)cc1OC (stereo not given)", 2.27],
  ["CCCCNc1cc(C(=O)O)cc(S(N)(=O)=O)c1Oc1ccccc1 [bumetanide]", 2.83],
  ["CCC1(c2ccc(N)cc2)CCC(=O)NC1=O (stereo not given) [aminoglutethimide]", 2.8]
]}
